Values compiled from ChEMBL document CHEMBL1137853.

Reported log10 of IC50 is given for each of the following compounds.
Target: Dipeptidyl peptidase 4 (Homo sapiens, UniProt P27487)
Sequence (P27487 whole entry): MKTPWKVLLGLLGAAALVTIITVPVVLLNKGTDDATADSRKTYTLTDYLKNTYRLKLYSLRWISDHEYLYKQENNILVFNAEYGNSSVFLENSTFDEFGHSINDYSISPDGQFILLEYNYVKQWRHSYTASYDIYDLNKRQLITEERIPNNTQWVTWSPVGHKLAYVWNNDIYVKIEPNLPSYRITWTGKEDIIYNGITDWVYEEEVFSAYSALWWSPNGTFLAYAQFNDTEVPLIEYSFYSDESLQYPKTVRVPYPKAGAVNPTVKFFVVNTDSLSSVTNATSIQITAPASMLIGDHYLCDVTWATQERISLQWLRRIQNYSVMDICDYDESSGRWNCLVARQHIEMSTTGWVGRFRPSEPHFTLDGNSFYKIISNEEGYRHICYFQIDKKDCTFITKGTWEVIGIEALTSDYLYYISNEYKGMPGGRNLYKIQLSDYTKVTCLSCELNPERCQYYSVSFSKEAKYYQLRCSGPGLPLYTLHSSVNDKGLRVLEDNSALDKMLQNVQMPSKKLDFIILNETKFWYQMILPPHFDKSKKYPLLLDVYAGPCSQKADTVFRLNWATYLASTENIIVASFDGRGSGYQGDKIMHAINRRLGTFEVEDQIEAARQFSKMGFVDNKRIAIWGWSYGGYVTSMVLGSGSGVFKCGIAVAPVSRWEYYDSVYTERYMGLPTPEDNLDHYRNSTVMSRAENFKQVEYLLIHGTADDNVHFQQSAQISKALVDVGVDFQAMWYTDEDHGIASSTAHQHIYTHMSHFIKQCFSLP
Recorded IC50 (log10, µM)

Some solved cases for reference:
> print(dat)
                           smiles.input  observed.result
1  N#Cc1ccc(C[C@@H](N)CC(=O)N2CCSC2)cc1             1.17
2   N[C@@H](CC(=O)N1CCSC1)Cc1c(F)cccc1F             0.93
3       N[C@@H](CC(=O)N1CCSC1)Cc1ccncc1             1.71
4       N[C@@H](CC(=O)N1CCSC1)Cc1ccccn1             1.60

Moving on to the next compound.
Given N[C@@H](CC(=O)N1CCSC1)Cc1cc(F)ccc1F , state its recorded log10 of IC50. -0.57
